# measured target: T1, human FSTL1 (construct not stated) (human, UniProt Q12841 21-308)
# T1 construct: also called human FSTL1 antigen; FSTL1 (R&D Systems, Inc. Cat#1694-FN-050)
# T1 sequence: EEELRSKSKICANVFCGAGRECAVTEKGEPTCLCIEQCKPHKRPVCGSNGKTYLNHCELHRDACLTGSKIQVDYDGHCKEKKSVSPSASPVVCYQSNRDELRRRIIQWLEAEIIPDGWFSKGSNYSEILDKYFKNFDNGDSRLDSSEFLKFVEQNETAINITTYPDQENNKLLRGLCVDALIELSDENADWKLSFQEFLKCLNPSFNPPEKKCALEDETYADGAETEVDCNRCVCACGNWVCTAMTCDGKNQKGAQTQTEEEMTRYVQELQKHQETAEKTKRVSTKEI
# test details: SPR (Biacore T-200), captured antibody, human FSTL1 10 µg/ml
Quick rule: Binding amount (RU) of at least 10 RU means Y, below that means N.

binder: anti-FSTL1 antibody clone #8-7 (chicken-mouse chimeric antibody) (antibody, mouse IgG1, kappa, V domains shown) VH: AVTLDESGGGLQTPGGGLSLVCKGSGFTFSSFNMFWVRQAPGKGLEWVAGIGKDGVPKYGAAVDGRATISKDNGQSTLRLQLNNLRAEDTGTYFCAKAAGGCSYDWCGIYAGDIDTWGHGTEVIVSS VL: ASTQPSSVSANPGEAVKITCSGGSGSYYGWYQQKSPGSAPVTVIYNNNQRPSDIPSRFSGSKSGSTATLTITGVQAEDEAVYFCGGYDSSTGHGGIFGAGTTLTVLG
category: Y
--
binder: anti-FSTL1 antibody clone #7-34 (chicken-mouse chimeric antibody) (antibody, mouse IgG1, kappa, V domains shown) VH: AVTLDESGGGLQTPGGGLSLVCKASGFTFSSVTMQWVRQAPGKGLEWVASICSGSSTYYGPAVKGRATISRDNGQNTVRLQLNNLRAEDTATYYCAKIVGRGRWSCTSAAYNIDAWGHGTEVIVSS VL: ASTQPSSVSANPGETVKITCSGGGNNYGWYQQKSPGSAPVTVIYYNNNRPSNIPSRFSGSTSGSTSTLTITGVQAEDEAVYYCGSYEGSTDSGIFGAGTTLTVLG
category: Y
--
binder: anti-FSTL1 antibody clone #5-43 (chicken-mouse chimeric antibody) (antibody, mouse IgG1, kappa, V domains shown) VH: AVTLDESGGGLQTPGGGLSLVCKGSGFTFSSFNMFWVRQAPGKGLEWVAGIGKDGGTGYGAAVDGRATISKDSGQSTLRLQLNNLRAEDTGTYYCAKAAGGCSYDWCGAYTGDIDTWGHGTEVIVSS VL: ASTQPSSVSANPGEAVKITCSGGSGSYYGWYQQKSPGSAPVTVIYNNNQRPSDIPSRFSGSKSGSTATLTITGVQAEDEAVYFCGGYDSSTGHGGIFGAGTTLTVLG
category: N
--
binder: anti-FSTL1 antibody clone #33 (chicken-mouse chimeric antibody) (antibody, mouse IgG1, kappa, V domains shown) VH: AVTLDESGGGLQTPGGGLSLVCKASGFTFSSFNMNWVRQAPGKGLEYVAEISGTGSSTYYGSAVKGRATISRDNGQSTVRLQLNNLRAEDTATYFCARGDGAYSIDAWGHGTEVIVSS VL: ASTQPSSVSANPGETVEITCSGDSSYYGWFQQKSPGSAPVTVIYDNTNRPSDIPSRFSGSKSGSTATLTITGVRAEDEAVYYCGGYDSSTYDGIFGAGTTLTVLG
category: Y

Next, consider the following binder.
Check this binder for Binding amount (RU) at or above 10 RU: anti-FSTL1 antibody clone #5-2 (chicken-mouse chimeric antibody) (antibody, mouse IgG1, kappa, V domains shown) VH: AVTLDESGGGLQTPGGGLSLVCKGSGFTFSSFNMFWVRQAPGKGLEWVAGVGKDGGTGYGAAVDGRATISKDNGQSTLRLQLNNLRAEDTGTYYCAKAAGGCSYGWCGSYVGDIDAWGHGTEVIVSS VL: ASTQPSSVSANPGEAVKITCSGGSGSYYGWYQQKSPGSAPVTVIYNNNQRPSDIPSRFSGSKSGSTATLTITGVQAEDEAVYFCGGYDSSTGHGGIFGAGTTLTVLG
N
